- measured on: T1, human MASP-3 (construct not stated) (human)
- T1 construct: also called MASP-3 antigen
- T1 chain: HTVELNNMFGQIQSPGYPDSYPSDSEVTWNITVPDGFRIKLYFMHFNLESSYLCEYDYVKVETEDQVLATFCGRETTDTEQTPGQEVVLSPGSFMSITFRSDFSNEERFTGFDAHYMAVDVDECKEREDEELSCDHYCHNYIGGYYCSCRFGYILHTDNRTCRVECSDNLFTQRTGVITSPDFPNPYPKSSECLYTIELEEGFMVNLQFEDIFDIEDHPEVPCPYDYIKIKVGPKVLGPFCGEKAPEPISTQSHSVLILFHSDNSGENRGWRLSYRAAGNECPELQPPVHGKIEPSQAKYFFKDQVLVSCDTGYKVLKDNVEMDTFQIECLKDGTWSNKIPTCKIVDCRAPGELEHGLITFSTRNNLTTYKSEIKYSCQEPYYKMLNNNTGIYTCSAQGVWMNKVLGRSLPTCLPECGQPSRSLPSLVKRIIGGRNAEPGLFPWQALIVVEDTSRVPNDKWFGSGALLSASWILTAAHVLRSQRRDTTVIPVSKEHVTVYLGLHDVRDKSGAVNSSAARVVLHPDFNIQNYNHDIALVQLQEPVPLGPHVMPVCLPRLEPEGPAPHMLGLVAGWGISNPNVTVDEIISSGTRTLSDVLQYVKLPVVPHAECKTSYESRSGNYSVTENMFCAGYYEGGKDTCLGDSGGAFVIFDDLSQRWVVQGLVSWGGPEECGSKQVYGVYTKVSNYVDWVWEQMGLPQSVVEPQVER
- assay notes: ELISA, monovalent Fab
parameter: pEC50
# pEC50 is unitless: minus log10 of the molar concentration; print number only

Task item: Data request, read-out pEC50, for h4D5-19-1-NA Fab (VH-19 and VL-1-NA) (Fab, V domains shown, Humanized monovalent Fab; also called 4D5-NA mutant) VH: QVQLVQSGAEVKKPGASVKVSCKASGYTFTTDDINWVRQAPGQGLEWIGWIYPRDDRTKYNDKFKDRATLTVDTSSNTAYMELSSLRSEDTAVYYCSSLEDTYWGQGTLVTVSS VL: DIVMTQSPDSLAVSLGERATINCKSSQSLLASRTRKNYLAWYQQKPGQPPKLLIYWASTRESGVPDRFSGSGSGTDFTLTISSLQAEDVAVYYCKQSYNLYTFGQGTKVEIKR
Reply: 9.91

Task item: Can you check h13B1_10-1-NA Fab (VH-10 and VL-1-NA) (Fab, V domains shown, Humanized monovalent Fab; also called 13B1-NA) VH: QVQLVQSGAEVKKPGASVKVSCKASGYTFTGKWIEWVRQAPGQGLEWIGEILPGTGSTNYNEKFKGRATFTADSSTSTAYMELSSLRSEDTAVYYCLRSEDVWGQGTLVTVSS VL: DIVMTQSPDSLAVSLGERATINCKSSQSLLASRTRKNYLAWYQQKPGQPPKLLIYWASTRESGVPDRFSGSGSGTDFTLTISSLQAEDVAVYYCKQSYNIPTFGQGTKVEIKR next?
Reply: 9.98

Task item: Can you check h4D5-19-1-ST Fab (VH-19 and VL-1-ST) (Fab, V domains shown, also called 4D5-ST mutant) VH: QVQLVQSGAEVKKPGASVKVSCKASGYTFTTDDINWVRQAPGQGLEWIGWIYPRDDRTKYNDKFKDRATLTVDTSSNTAYMELSSLRSEDTAVYYCSSLEDTYWGQGTLVTVSS VL: DIVMTQSPDSLAVSLGERATINCKSSQSLLNTRTRKNYLAWYQQKPGQPPKLLIYWASTRESGVPDRFSGSGSGTDFTLTISSLQAEDVAVYYCKQSYNLYTFGQGTKVEIKR next?
Reply: 9.82
